- Target entity: human ACSS2 (Homo sapiens)
- Construct: The cytosolic fraction of BT474 cells was used as a source of the ACSS2 enzyme; endogenous in cells
- Test summary: ACSS2 enzyme assay (acetyl-CoA formation, LC-MS/MS)
- Condition parameters: cytosolic fraction of BT474 cells as ACSS2 source; 100 μM acetate, CoA and ATP; 2 h at 25° C.; read-out: Enzyme Activity (IC50 range)
Measured IC50 accompanies every entry in the list below.
Endpoint name: IC50

> print(dat)
                                   compound  reported.result
1  CCC(O)CNC(=O)Nc1ccc2nc(-c3ccccc3F)c(-c3ccccc3OC)cc2c1 (centres unmarked) [Example 26]         < 0.1 µM
2  CCC(CNC(=O)Nc1ccc2nc(-c3ccccc3)c(-c3ccccc3F)cc2c1)OC (centres unmarked) [Example 44]         < 0.1 µM
3  CCC(O)CNC(=O)Nc1ccc2nc(-c3ccccc3)c(-c3ccccc3)c(C(=O)O)c2c1 (centres unmarked) [Example 65]         < 0.1 µM
4  CCC(CNC(=O)Nc1ccc2nc(C)c(-c3ccccc3)cc2c1)OC (centres unmarked) [Example 77]         < 0.1 µM
5  CCC(O)CNC(=O)Nc1ccc2nc(-c3ccccc3F)c(-c3ccccc3)cc2c1 (centres unmarked) [Example 8]         < 0.1 µM
6  CCC(O)CNC(=O)Nc1ccc2nc(-c3ccccn3)c(-c3ccccc3)cc2c1 (centres unmarked) [Example 38]         < 0.1 µM
7  CCC(O)CNC(=O)Nc1ccc2nc(-c3cccnc3OC)c(-c3cccnc3OC)cc2c1 (centres unmarked) [Example 13]           ≤ 1 µM
8  CCCCC(F)(F)C(=O)Nc1ccc2nc(-c3ccccc3)c(-c3ccccc3)cc2c1 [Example 122]          ≤ 10 µM

###

In this section, each of the compounds is paired with its reported IC50.
- Target entity: human ACSS2 (Homo sapiens, UniProt Q9NR19)
- Construct: The cytosolic fraction of BT474 cells was used as a source of the ACSS2 enzyme; endogenous in cells
- Sequence (Q9NR19 whole entry): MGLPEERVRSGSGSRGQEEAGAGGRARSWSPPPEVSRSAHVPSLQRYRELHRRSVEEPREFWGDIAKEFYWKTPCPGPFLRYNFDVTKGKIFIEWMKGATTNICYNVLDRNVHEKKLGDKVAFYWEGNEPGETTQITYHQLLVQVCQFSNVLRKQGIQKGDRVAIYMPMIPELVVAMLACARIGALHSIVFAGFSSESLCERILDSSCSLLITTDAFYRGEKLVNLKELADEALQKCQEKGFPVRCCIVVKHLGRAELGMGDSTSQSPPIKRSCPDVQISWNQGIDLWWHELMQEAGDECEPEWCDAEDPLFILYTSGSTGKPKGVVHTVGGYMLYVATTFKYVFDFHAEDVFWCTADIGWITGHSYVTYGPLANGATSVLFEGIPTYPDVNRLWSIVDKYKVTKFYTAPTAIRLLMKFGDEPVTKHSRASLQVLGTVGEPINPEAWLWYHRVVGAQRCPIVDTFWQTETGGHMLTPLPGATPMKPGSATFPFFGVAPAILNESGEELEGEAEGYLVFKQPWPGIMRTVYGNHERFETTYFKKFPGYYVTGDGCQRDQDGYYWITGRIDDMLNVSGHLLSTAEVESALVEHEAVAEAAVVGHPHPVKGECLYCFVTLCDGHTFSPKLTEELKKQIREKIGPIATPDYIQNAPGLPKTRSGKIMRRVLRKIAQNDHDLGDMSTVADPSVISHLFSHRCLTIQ
- Test summary: ACSS2 enzyme assay (acetyl-CoA formation, LC-MS/MS)
- Condition parameters: cytosolic fraction of BT474 cells as ACSS2 source; 100 μM acetate, CoA and ATP; 2 h at 25° C.; read-out: Enzyme Activity (IC50 range)
- From the text: Novel compounds were screened in a human ACSS2 enzyme assay. Briefly, the ACSS2 enzyme reaction was monitored by directly measuring acetyl-CoA formation. The cytosolic fraction of BT474 cells was used as a source of the ACSS2 enzyme. A short protocol for this assay is provided below. Preparation of Cytosolic Fraction from BT474 Cells 9×10^6 cells were harvested by trypsinization followed by centrifugation. […]
Endpoint name: IC50

> print(dat)
                                    compound                             target.entity  reported.result
 1  CCc1nc2ccc(NC(=O)NCC(O)CC)cc2cc1-c1ccccc1 (centres unmarked)  human ACSS2 (Homo sapiens, UniProt Q9NR19)         < 100 nM
 2  CCC(O)CNC(=O)Nc1ccc2nc(-c3ccccc3)c(-c3ccccc3)c(NS(C)(=O)=O)c2c1 (centres unmarked)  human ACSS2 (Homo sapiens, UniProt Q9NR19)         < 100 nM
 3  CCC(O)CNC(=O)Nc1ccc2nc(-c3ccccc3OC)c(-c3ccccc3)cc2c1 (centres unmarked)  human ACSS2 (Homo sapiens, UniProt Q9NR19)         < 100 nM
 4  CCC(O)CNC(=O)Nc1ccc2nc(-c3cnn(C)c3)c(-c3ccccc3)cc2c1 (centres unmarked)  human ACSS2 (Homo sapiens, UniProt Q9NR19)         < 100 nM
 5  CCC(O)CNC(=O)Nc1ccc2nc(-c3ccccc3N)c(-c3ccccc3F)cc2c1 (centres unmarked)  human ACSS2 (Homo sapiens, UniProt Q9NR19)         < 100 nM
 6  CCC(O)CNC(=O)Nc1ccc2nc(-c3cccc(C(C)=O)c3)c(-c3cccc(C(C)=O)c3)cc2c1 (centres unmarked)  human ACSS2 (Homo sapiens, UniProt Q9NR19)       ≤ 10000 nM
 7  CCCCNC(=O)Nc1ccc2nc(-c3ccccc3)c(-c3ccccc3)cc2c1  human ACSS2 (Homo sapiens, UniProt Q9NR19)         < 100 nM
 8  CC[C@@H](O)CNC(=O)Nc1ccc2nc(-c3ccccc3)c(C)c(C(N)=O)c2c1  human ACSS2 (Homo sapiens, UniProt Q9NR19)         < 100 nM
 9  CC[C@@H](O)CNC(=O)Nc1cc2cc(-c3ccccc3)c(-c3ccccc3)nc2cc1F  human ACSS2 (Homo sapiens, UniProt Q9NR19)        ≤ 1000 nM
10  CC[C@@H](O)CNC(=O)Nc1ccc2nc(-c3ccccc3)c(-c3ccccc3F)cc2c1  human ACSS2 (Homo sapiens, UniProt Q9NR19)         < 100 nM
11  CCC(O)CNC(=O)Nc1ccc2nc(/C=C/c3ccccc3)c(-c3ccccc3)cc2c1 (centres unmarked)  human ACSS2 (Homo sapiens, UniProt Q9NR19)       ≤ 10000 nM
